# credit: patent US20200165324A1

Kindly state competition value for each of the entries shown.
Biological target: stabilized BG505 SOSIP construct MD39 (HIV isolate BG505)
Assay: competition ELISA on MD39 vs b12

Task item: Item NC-Cow7 (antibody) VH: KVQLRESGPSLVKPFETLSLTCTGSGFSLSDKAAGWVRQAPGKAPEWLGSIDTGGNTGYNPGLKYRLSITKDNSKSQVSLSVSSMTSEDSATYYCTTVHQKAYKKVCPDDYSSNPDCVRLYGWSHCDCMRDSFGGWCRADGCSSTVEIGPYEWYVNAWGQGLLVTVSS VL: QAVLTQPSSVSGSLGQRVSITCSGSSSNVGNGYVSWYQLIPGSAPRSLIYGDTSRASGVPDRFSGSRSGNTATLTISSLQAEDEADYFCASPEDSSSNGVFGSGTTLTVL has what recorded competition value?
Reply: 9

Task item: Item NC-Cow2 (antibody) VH: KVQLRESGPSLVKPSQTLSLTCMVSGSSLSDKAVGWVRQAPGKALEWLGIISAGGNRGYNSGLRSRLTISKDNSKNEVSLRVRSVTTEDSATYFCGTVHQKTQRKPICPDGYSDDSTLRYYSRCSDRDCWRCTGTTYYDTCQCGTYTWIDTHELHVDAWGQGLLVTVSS VL: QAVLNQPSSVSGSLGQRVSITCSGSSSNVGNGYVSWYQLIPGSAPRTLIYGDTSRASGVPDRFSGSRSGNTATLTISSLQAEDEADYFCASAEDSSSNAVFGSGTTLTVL has what recorded competition value?
Reply: 0

Task item: Item NC-Cow4 (antibody) VH: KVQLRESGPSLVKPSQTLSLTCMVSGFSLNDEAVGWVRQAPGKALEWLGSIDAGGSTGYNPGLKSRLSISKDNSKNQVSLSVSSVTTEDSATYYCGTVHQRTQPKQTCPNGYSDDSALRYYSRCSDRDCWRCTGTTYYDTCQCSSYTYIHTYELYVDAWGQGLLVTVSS VL: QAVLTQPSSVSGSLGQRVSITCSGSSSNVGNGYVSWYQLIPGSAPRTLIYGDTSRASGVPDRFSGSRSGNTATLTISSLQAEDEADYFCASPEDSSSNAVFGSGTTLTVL has what recorded competition value?
Reply: 29

Task item: Item NC-Cow5 (antibody) VH: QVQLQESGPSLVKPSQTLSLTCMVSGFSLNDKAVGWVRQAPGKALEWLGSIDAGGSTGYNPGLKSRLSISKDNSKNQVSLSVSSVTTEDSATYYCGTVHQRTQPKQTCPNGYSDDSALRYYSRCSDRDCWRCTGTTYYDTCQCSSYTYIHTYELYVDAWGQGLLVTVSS VL: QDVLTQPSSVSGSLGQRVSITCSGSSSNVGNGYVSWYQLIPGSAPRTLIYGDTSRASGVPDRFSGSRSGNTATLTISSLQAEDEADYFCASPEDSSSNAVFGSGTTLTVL has what recorded competition value?
Reply: 23
